Cited source for all entries: a melting point compilation (Tetko et al.; mined from patent text by program, amines drawn as free bases though some values may be those of a salt)

Exercise: state measured melting point for each of the compounds provided.

(Q) Given the entry COc1c(O)c(OC)c2c(=O)cc(-c3ccc(O)c(O)c3)oc2c1OC , report its measured melting point.
(A) 279 to 281 °C

(Q) Another compound: O=C1C(=CN2CCOCC2)c2ccccc2N1c1cccc(Cl)c1
(A) 130 to 132 °C

(Q) Another compound: COc1ccc2c(c1)Cc1cc(CC(=O)O)ccc1-2
(A) 200 to 202 °C

(Q) Another compound: Nc1nc(C(F)(F)F)c(-c2ccncc2)cc1C(=O)O
(A) > 283 °C

(Q) Another compound: CN1CCC(c2cc(-c3ccncc3)c(-c3cccc(C(F)(F)F)c3)nn2)CC1
(A) 188 to 189 °C

(Q) Another compound: CCN(CC)C(=O)c1cc2sccc2c(-c2ccccc2Cl)n1
(A) 119 °C

(Q) Another compound: CCCCc1nc(S(C)(=O)=O)c(C(=O)O)n1Cc1ccc(-c2ccccc2C(=O)O)cc1
(A) 196 °C

(Q) Another compound: CCc1cc(C(N)=O)nn1CC
(A) 129 to 131 °C

(Q) Another compound: CC(=O)c1oc2ccc(Br)cc2c1NC(=O)c1cnoc1C
(A) 206 to 208 °C

(Q) Another compound: O=C(Nc1cn(C2CCCCO2)nc1C(=O)NCCNc1ccccn1)c1ccccn1 (stereo not given)
(A) 178 to 180 °C

(Q) Another compound: CC(C)=CCC/C(C)=C/CC/C(C)=C/C(N)=O
(A) 53 to 53.5 °C

(Q) Another compound: CC(C)(C(=O)OCC(=O)c1ccccc1)n1c(=O)[nH]c2cc(Cl)ccc2c1=O
(A) 203 to 204 °C

(Q) Another compound: CS(=O)(=O)c1ccc(-c2nc3cc(C4CCN(C(=O)OCc5ccccc5)CC4)ccc3o2)c(F)c1
(A) 172 to 175 °C

(Q) Another compound: NC(=O)Cc1ccc(Nc2nc(OCC3CCCCC3)c3nc[nH]c3n2)cc1
(A) 234 °C

(Q) Another compound: COc1ccc(Sc2sccc2C=O)cc1
(A) 58 to 60 °C

(Q) Another compound: CNc1cc(Cl)c(C=O)c(Cl)c1
(A) 172 to 174 °C

(Q) Another compound: CC(C)(C(=O)O)c1nc2ccc(NCCCN3CCC(OC(c4ccccc4)c4ccccc4)CC3)nn2c1Cl
(A) 133 to 135 °C

(Q) Another compound: CCN1c2ncccc2C(=NC#N)Nc2c(C)cc(C)nc21
(A) 230 to 233 °C

(Q) Another compound: CCOC(=O)Nc1cc(OC(C)C)c(Cl)cc1F
(A) 89 to 91 °C

(Q) Another compound: CS(=O)(=O)c1ccc(C2=C(c3ccc(-c4cccs4)cc3)C(=O)OC2)cc1
(A) 198 to 201 °C

(Q) Another compound: COc1ccc(-c2nc3ccc(C(=O)O)cc3[nH]2)cc1C12CC3CC(CC(C3)C1)C2
(A) 358 to 359 °C

(Q) Another compound: NS(=O)(=O)c1cccc(-c2cn(-c3nc(-c4ccc(C(F)(F)F)nc4)cc(C(F)F)n3)cn2)c1
(A) 220 °C

(Q) Another compound: Cc1nc2cc(C(c3cccc(Cl)c3)n3ccnc3)ccc2[nH]c1=O (stereo not given)
(A) 271 °C

(Q) Another compound: CS(=O)(=O)c1ccc(C(CC2CCCC2)c2nc(Br)c(C(=O)C3CC3)[nH]2)cc1 (stereo not given)
(A) 160 to 161 °C

(Q) Another compound: COC(=O)N(CC(=O)Nc1ccc(S(N)(=O)=O)cc1)c1ccccc1
(A) 196 to 199 °C

(Q) Another compound: CCOC(=O)c1cc2c(Cl)ccc(N(C)S(=O)(=O)c3cccs3)c2n1COC
(A) 137 to 138 °C

(Q) Another compound: Nc1ccc(C(=O)Nc2ccc(Cl)nc2)cc1F
(A) 193 °C

(Q) Another compound: O=c1n(-c2ccccc2)c(=O)n(SC(Cl)(Cl)Cl)n1SC(Cl)(Cl)Cl
(A) 175 °C

(Q) Another compound: CCOCc1nc2c(N)nc3ccccc3c2n1Cc1cc(-c2cccnc2)no1
(A) 240 to 242 °C

(Q) Another compound: O=C(O)COc1nnc(C(F)(F)F)s1
(A) 58 °C

(Q) Another compound: CS(=O)(=O)c1ccc(-c2sc(N3CCCCC3)nc2-c2ccc(F)cc2)cc1
(A) 173 to 175 °C

(Q) Another compound: Cc1ccc2nc(-c3cccc(C(=O)O)c3)oc2c1
(A) 239 to 241 °C

(Q) Another compound: CCOC(=O)c1ccccc1C(=O)c1cccc(NC(=O)c2ccn3c2CSC3c2cccnc2)c1 (stereo not given)
(A) 150 °C

(Q) Another compound: CC(C)(C)c1ccc(C[C@@H](NC(=O)c2ccc(F)c3ccccc23)[C@@H](O)c2ccc(F)cc2)cc1 (racemic)
(A) 149 to 150 °C

(Q) Another compound: CNc1cc(C(=O)CS(C)(=O)=O)cc(NC)c1Cl
(A) 165 to 167 °C

(Q) Another compound: CCCc1c(C(C)=O)ccc(OCc2nc3nccnc3c(=O)[nH]2)c1O
(A) 224 to 226 °C

(Q) Another compound: Cn1c(COc2cccc([N+](=O)[O-])c2)nc2ccccc21
(A) 183 to 185 °C

(Q) Another compound: CC(C)(C)CC(=O)NCc1ccc2c(c1)C(=O)N(C1CCC(=O)NC1=O)C2=O (stereo not given)
(A) 232 to 234 °C

(Q) Another compound: CNC(=S)C1=CC(CF)(CF)Oc2ccc([N+](=O)[O-])cc21
(A) 134 to 135 °C

(Q) Another compound: CCOC(=O)c1c(NC)n[nH]c1C
(A) 161 to 162 °C
